# Measurement Protocol: Phase 1/2 clinical study: pharmacokinetics in cancer patients
# Type: in vivo, human
# Test Settings: human, plasma, oral; 25 mg; 24 hr (not measured, inferred based on predose); read-out: Mean patient plasma CONC (SD)

Smiles Data	concentration at 24 h (ng/mL)
COc1ccc(F)cc1C(=O)NCc1ccc(-c2nn([C@@H](C)C(F)(F)F)c(N)c2C(N)=O)cc1	263

These data points were gathered from patent US12551463B2.
